System under test: Fes (UniProt P07332)
Sequence (P07332 whole entry, looked up): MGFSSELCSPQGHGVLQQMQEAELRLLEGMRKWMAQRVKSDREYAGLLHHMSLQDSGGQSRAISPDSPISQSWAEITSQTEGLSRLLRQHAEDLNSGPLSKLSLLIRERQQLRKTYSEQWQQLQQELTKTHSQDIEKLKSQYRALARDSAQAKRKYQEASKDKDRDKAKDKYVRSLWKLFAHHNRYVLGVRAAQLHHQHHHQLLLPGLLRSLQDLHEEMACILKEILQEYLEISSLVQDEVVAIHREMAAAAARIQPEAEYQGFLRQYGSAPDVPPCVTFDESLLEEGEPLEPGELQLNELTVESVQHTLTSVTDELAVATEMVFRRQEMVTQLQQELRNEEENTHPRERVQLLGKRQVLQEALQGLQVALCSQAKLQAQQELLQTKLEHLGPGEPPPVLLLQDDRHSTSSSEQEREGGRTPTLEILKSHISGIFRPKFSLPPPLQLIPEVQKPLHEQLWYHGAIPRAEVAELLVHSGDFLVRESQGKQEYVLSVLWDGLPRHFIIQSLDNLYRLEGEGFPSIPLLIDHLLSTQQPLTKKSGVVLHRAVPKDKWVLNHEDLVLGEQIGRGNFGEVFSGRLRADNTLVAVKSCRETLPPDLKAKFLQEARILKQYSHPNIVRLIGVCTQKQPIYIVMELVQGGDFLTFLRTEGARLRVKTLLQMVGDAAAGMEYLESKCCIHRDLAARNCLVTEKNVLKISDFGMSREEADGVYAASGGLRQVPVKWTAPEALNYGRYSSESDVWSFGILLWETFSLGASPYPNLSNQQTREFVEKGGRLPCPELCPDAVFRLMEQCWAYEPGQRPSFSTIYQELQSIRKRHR
Assay overview: phosphorylation enrichment, bacterial display (enrichment ratio); higher = better substrate or ligand; peptides without Tyr show the background
Given measured phosphorylation enrichment, output fulfilled if it is greater than or equal to 1 and not fulfilled if not.

HELFVYKSDEN [DOCK3_Y548_C550S_YF] : fulfilled
VLDSHYPEDEV [C1QBP_Y188_C186S] : fulfilled
LIPIKYKAMKK [MYD88_Y257] : not fulfilled
KEDSVYGSQSV [NFKB2_Y868_A867V] : not fulfilled
KSRQIYDAFIM [GRK3_Y109_R104K_YF] : not fulfilled

Is the recorded value of phosphorylation enrichment equal to or greater than 1 for this sequence? HVPEEYKPKQG [SAXO2_Y37]
fulfilled

Is the recorded value of phosphorylation enrichment equal to or greater than 1 for this sequence? FPAVGYHKPHI [IDS_Y225_L221P]
not fulfilled

Is the recorded value of phosphorylation enrichment equal to or greater than 1 for this sequence? RFVFFYSFLLK [PTEN_Y178_YF]
fulfilled

---

// reported phosphorylation enrichment per item
System under test: FGFR3 (UniProt P22607)
Sequence (P22607 whole entry, looked up): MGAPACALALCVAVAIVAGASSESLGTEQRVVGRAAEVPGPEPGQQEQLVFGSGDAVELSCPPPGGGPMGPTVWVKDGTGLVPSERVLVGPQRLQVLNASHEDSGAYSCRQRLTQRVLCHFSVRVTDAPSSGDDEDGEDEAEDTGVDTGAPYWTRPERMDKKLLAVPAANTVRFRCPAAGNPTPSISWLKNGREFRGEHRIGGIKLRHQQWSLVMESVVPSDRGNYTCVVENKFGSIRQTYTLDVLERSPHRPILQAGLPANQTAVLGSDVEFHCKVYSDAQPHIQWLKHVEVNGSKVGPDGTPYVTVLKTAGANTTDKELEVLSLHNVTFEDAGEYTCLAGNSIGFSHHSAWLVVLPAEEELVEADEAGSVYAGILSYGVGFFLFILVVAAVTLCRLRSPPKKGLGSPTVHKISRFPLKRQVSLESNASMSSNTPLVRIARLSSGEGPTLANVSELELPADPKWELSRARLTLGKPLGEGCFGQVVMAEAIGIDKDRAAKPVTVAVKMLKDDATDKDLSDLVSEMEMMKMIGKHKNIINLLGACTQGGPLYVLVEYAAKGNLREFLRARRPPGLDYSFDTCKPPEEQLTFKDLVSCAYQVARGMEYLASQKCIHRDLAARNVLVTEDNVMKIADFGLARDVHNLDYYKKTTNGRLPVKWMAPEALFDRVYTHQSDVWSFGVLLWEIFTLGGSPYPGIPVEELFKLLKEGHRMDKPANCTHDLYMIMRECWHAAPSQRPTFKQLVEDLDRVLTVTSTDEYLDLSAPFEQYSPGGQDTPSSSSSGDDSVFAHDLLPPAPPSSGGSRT
Assay overview: phosphorylation enrichment, bacterial display (enrichment ratio); higher = better substrate or ligand; peptides without Tyr show the background
Would you mind answering with just the numeric figure?

Reference set (2 entries):
GNHISYFQSDG [CACNA1C_Y1757_V1755I_YF] : 0.496
TKDTFYKQPMV [GBA_Y451_F456V] : 0.512

Could you tell me which phosphorylation enrichment is on file for PPLMLYNPTTY [EGFR_Y270] ?
0.498

---

System under test: Fyn (UniProt P06241)
Sequence (P06241 whole entry, looked up): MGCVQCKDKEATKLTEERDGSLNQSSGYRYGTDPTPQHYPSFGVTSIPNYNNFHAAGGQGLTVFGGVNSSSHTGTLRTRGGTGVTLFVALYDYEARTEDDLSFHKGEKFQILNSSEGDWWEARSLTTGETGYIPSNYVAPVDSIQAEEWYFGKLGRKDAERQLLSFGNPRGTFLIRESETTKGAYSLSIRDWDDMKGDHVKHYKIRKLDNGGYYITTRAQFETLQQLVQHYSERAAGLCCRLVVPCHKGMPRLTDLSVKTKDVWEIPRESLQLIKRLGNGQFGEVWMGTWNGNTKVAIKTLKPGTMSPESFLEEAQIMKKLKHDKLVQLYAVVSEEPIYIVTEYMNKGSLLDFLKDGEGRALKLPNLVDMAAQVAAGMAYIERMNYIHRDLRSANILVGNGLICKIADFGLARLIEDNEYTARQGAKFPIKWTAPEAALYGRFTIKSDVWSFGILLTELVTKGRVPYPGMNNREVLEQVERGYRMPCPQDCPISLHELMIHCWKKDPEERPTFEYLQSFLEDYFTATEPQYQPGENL
Assay overview: phosphorylation enrichment, bacterial display (enrichment ratio); higher = better substrate or ligand; peptides without Tyr show the background
Given measured phosphorylation enrichment, output y if it is greater than or equal to 0.5 and n if not.

Example results:
PPLMLYNPTTY [EGFR_Y270] : y
HNLDFYKMTTN [FGFR3_Y648_K650M_YF] : y
DHTVNYVLKCR [PLEKHG4_Y1068_R1064H] : n
LKLWDYRRGRC [WDR5B_Y239_S240R] : y
EESREYDRLYE [PIK3R1_Y463_K459E] : y

Is the recorded value of phosphorylation enrichment equal to or greater than 0.5 for this sequence? GGQDVYGDFGG [Probound]
y

Is the recorded value of phosphorylation enrichment equal to or greater than 0.5 for this sequence? FRARAYSFRGP [CHGA_Y381_G382S]
n

---

System under test: Grb2 SH2 (UniProt P62993)
Sequence (P62993 whole entry, looked up): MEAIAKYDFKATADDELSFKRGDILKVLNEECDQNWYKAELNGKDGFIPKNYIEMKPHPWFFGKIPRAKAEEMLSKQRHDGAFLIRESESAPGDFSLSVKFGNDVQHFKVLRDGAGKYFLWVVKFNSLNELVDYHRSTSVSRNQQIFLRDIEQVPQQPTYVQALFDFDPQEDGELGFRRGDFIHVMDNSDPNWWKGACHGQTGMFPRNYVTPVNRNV
Assay overview: SH2 binding enrichment of the phosphorylated peptide, bacterial display (enrichment ratio); higher = better substrate or ligand; peptides without Tyr show the background
Given measured SH2 binding enrichment, output t if it is greater than or equal to 0.8 and f if not.

Example results:
SVTCTYSPALY [TP53_Y126_N131Y] : f
KLKRSYCSPDI [USP8_Y717_S718C] : t
GRVYVYRLSEQ [ITGAE_Y551] : t
FASALYGQRRS [FGF11_Y162_R163G_YF] : f

Below: the item to evaluate.
Is the recorded value of SH2 binding enrichment equal to or greater than 0.8 for this sequence? KSNSDYVDVLP [SH2D1B_Y127_N122K]
f

---

// reported phosphorylation enrichment per item
System: c-Src
Assay overview: phosphorylation enrichment, bacterial display (enrichment ratio); higher = better substrate or ligand; peptides without Tyr show the background

Reference set (3 entries):
FRPPYYHRDCM [HGD_Y334_N337D] : 0.455
CTTIHYNFMFN [TP53_Y234_C238F_YF] : 0.586
ADYPDCKYRPR [SOX11_Y116_Y116C] : 0.406

Could you tell me which phosphorylation enrichment is on file for RGESFYQDRMN [RARS_Y338] ?
0.541

Could you tell me which phosphorylation enrichment is on file for EEGESHVCSSD [DCX_Y125_Y125H] ?
0.525

Could you tell me which phosphorylation enrichment is on file for FGHTFYNQAIM [MCCC2_Y196_R193H] ?
0.455

Could you tell me which phosphorylation enrichment is on file for YPPTHYIRRMP [SLC4A11_Y820_V824M] ?
0.381

Could you tell me which phosphorylation enrichment is on file for NQDRTYFESVR [SPEN_Y632_YF] ?
0.678

Could you tell me which phosphorylation enrichment is on file for ISRDVYSTDYY [NTRK2_Y702_M697I] ?
4.67

Could you tell me which phosphorylation enrichment is on file for YFVVEYRDQKP [MUC17_Y4332] ?
0.728

Could you tell me which phosphorylation enrichment is on file for RSSPVYVGRVV [TGM2_Y219] ?
1.42

Could you tell me which phosphorylation enrichment is on file for IGEGTYGVLYK [CDK2_Y15_V18L] ?
5.6

---

System under test: EPHB1 (UniProt P54762)
Sequence (P54762 whole entry, looked up): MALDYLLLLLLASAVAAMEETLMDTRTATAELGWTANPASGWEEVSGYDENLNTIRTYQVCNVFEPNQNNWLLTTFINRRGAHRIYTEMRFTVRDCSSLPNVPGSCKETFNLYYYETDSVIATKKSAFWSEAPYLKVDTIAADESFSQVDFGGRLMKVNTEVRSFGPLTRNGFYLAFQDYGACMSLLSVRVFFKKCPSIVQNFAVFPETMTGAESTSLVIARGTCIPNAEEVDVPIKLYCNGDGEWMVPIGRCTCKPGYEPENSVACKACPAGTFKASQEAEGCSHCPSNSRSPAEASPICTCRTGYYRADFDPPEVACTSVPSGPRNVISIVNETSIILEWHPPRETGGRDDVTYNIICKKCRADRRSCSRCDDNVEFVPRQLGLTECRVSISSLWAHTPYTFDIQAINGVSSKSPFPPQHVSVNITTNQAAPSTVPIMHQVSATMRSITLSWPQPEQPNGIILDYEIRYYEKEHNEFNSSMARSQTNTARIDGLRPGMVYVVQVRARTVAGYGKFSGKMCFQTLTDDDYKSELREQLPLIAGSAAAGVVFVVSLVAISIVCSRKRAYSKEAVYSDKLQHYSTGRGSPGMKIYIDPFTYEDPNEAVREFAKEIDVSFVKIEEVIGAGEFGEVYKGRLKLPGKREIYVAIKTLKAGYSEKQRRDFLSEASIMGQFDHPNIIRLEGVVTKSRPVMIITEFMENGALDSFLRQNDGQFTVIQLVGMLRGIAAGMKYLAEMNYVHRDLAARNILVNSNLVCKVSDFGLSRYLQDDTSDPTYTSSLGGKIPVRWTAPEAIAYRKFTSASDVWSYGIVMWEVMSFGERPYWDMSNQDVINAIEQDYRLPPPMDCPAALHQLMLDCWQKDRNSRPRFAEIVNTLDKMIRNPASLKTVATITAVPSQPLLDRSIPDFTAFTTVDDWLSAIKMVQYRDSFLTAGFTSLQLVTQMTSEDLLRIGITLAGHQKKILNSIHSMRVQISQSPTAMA
Assay overview: phosphorylation enrichment, bacterial display (enrichment ratio); higher = better substrate or ligand; peptides without Tyr show the background
Parameter: phosphorylation enrichment
Would you mind answering with just the numeric figure?

YTTIHYNYMCN [TP53_Y234_C229Y] : 1.81
VHNLDYFKQTT [FGFR3_Y647_K650Q_YF] : 0.56
APGDAYGDAGY [SYP_Y250] : 0.541
GGDAVYTNGAI [RFX2_Y82] : 0.425
KNILCYIQGGS [HYDIN_Y4610] : 0.711
IEEGTYGVVYR [CDK11B_Y449] : 4.1

Could you tell me which phosphorylation enrichment is on file for LNPLIYSLRNK [OR5R1_Y290] ?
2.03

Could you tell me which phosphorylation enrichment is on file for FLNSIYQSRDE [ROS1_Y2227_K2228Q] ?
0.533

Could you tell me which phosphorylation enrichment is on file for FSAGTYPRMEE [SYCN_Y108_L111M] ?
0.453

---

System under test: SHP2-C SH2
Assay overview: SH2 binding enrichment of the phosphorylated peptide, bacterial display (enrichment ratio); higher = better substrate or ligand; peptides without Tyr show the background
Given measured SH2 binding enrichment, output Met if it is greater than or equal to 0.7 and Not met if not.

Example results:
QGFDTYFGYLL [ARSB_Y165_R160Q] : Not met
QQLDEYQELLD [LMNA_Y359] : Not met
GSPPPYRRRKR [MBD1_Y403] : Not met
PKGTGYIKTES [STAT1_Y701_L706S] : Not met
IRSGIYFKPES [L2HGDH_Y102_H98R_YF] : Met

Below: the item to evaluate.
Is the recorded value of SH2 binding enrichment equal to or greater than 0.7 for this sequence? FRARAYGFRGP [CHGA_Y381]
Not met

---

System under test: EPHB2 (UniProt P29323)
Sequence (P29323 whole entry, looked up): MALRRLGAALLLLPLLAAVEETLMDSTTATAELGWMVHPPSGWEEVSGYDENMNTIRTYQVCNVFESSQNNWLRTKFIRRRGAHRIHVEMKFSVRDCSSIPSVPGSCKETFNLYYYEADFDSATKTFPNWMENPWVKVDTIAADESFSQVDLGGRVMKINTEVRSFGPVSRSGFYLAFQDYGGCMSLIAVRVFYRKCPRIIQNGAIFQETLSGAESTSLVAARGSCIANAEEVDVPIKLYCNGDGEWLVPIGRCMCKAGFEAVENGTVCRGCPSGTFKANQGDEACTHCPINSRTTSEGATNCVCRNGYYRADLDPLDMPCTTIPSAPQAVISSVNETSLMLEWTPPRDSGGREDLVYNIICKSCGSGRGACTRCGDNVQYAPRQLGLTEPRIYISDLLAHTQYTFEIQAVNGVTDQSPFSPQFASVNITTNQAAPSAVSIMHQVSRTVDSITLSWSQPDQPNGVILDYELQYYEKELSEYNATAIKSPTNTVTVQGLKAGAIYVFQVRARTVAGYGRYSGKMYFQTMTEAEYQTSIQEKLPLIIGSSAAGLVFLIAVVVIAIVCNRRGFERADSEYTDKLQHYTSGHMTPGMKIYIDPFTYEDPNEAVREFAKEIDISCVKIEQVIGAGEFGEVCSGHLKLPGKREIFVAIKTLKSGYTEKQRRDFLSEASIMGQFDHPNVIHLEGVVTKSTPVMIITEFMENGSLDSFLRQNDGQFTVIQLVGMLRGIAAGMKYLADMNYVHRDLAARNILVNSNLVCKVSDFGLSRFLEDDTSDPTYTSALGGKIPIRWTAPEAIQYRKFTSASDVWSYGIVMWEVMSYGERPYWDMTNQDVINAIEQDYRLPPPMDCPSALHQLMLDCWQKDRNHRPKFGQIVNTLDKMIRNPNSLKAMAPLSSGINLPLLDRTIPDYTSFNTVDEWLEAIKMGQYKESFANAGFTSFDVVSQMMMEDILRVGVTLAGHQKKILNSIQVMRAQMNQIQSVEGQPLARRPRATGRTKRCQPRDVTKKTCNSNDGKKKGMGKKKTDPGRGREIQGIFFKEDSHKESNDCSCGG
Assay overview: phosphorylation enrichment, bacterial display (enrichment ratio); higher = better substrate or ligand; peptides without Tyr show the background
Parameter: phosphorylation enrichment

GIVKAYYVRAR [AIPL1_Y267] : 0.47
LEVETYRRLLD [KRT12_Y429_I426V] : 0.407
ESMQSYDLDFP [UNC13B_Y243_D238E_YF] : 0.5

Kindly consider the entry below.
Could you tell me which phosphorylation enrichment is on file for FAKTQYPDIFA [CRX_Y63_V66I_YF] ?
0.373

---

// reported SH2 binding enrichment per item
System under test: SHP2-C SH2
Assay overview: SH2 binding enrichment of the phosphorylated peptide, bacterial display (enrichment ratio); higher = better substrate or ligand; peptides without Tyr show the background
Would you mind answering with just the numeric figure?

Reference set (6 entries):
PQGVGYPPQQQ [EP300_Y2219] : 0.685
ADYYDYGRGLS [KHDRBS3_Y304_H306R] : 6.25
KDHRDYKFQPR [SOX9_Y172_P170R_YF] : 1.04
KNILCYIQGGS [HYDIN_Y4610] : 0.598
FVTSMYNEILI [TRPV1_Y310_M315I] : 1.09
FPPTHYIRRVP [SLC4A11_Y820_YF] : 0.746

Item CEAMEYLESKQ [BTK_Y511] with SHP2-C SH2 - SH2 binding enrichment?
0.553

Item STKELYEKFMI with SHP2-C SH2 - SH2 binding enrichment?
0.709

Item QGGRRYMMIVD [GAA_Y438] with SHP2-C SH2 - SH2 binding enrichment?
0.776

Item RVQKRYIFDNV [RCN1_Y115] with SHP2-C SH2 - SH2 binding enrichment?
0.503

Item KLKRSYSSRDI [USP8_Y717_P720R] with SHP2-C SH2 - SH2 binding enrichment?
0.651

---

System under test: EPHB2 (UniProt P29323)
Assay overview: phosphorylation enrichment, bacterial display (enrichment ratio); higher = better substrate or ligand; peptides without Tyr show the background
Parameter: phosphorylation enrichment
Would you mind answering with just the numeric figure?

Reference set (5 entries):
LAARYYNWVCF [FLT4_Y1231_S1235C] : 0.615
FRDALYKSMVD [PHEX_Y250_F252S_YF] : 0.614
DFLSSYSAVNE [OAT_Y85_Q90E] : 0.596
FDAHIYEGRVI [PRKCD_Y64] : 0.609
SFHCSYSEIKD [DCLRE1C_Y322_S320C] : 0.59

Item TYGVVYRAKDK [CDK11B_Y453] with EPHB2 (UniProt P29323) - phosphorylation enrichment?
0.59

Item SSAAGYACLAY [MVD_Y131] with EPHB2 (UniProt P29323) - phosphorylation enrichment?
0.615
